B1: library; numbered along this chain (parent)
chain: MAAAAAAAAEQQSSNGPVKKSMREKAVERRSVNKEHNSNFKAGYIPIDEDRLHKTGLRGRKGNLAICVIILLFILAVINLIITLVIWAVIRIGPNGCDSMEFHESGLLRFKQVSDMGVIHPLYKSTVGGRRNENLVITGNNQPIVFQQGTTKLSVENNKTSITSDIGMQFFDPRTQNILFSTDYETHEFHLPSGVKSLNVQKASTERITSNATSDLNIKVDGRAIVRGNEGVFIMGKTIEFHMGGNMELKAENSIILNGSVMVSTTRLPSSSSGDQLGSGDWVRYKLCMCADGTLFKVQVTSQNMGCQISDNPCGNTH

variants of: B1; experiment: SGCB cell-surface expression functional score (HA stain, bin4 vs bin1, normalised to synonymous) (log10 ratio); higher = more cell-surface SGCB (functional)
Would you please tag the item MET when its SGCB cell-surface expression functional score (log10) is -0.08 or above, and NOT MET when it is below?

# example entries with known answers
G194C: NOT MET
C97T: MET
H190N: MET
L72F: MET

[ask] Say whether P121T shows SGCB cell-surface expression functional score (log10) of -0.08 or more.
[reply] NOT MET

[ask] Is it the case that G278W has SGCB cell-surface expression functional score (log10) reaching or exceeding -0.08?
[reply] MET

[ask] Tell me whether SGCB cell-surface expression functional score (log10) is at least -0.08 here: S210K
[reply] NOT MET
